Where do these numbers come from? They come from patent US20120077737A1.

System: HCVPV1b subgenomic replicon (wild type 1b)
ASSAY: HCV replicon RNA replication assay, wild type 1b
Type: cell-based, HCV genotype 1b (Con-1), Huh-7 cells
SETTINGS: Hepatitis C virus; Table 1; luciferase replicon, Huh-7, 72 h; read-out: WT 1b Ec50
MEASURED ENDPOINT: pEC50
Scale explanation: pEC50 corresponds to minus log10 of a concentration expressed in moles per litre.

# annotated cases, reported pEC50 shown
INSERT INTO measurements (compound, endpoint_result) VALUES
  ('Cc1c(Cl)ccc2c(O[C@@H]3C[C@H]4C(=O)N[C@]5(C(=O)NS(=O)(=O)C6(C)CC6)C[C@H]5/C=C\CCCCC[C@H](NC(=O)c5ccn(C)n5)C(=O)N4C3)cc(OC(C)C)nc12 [Compound 1003]', 9.68),
  ('COc1ccc2c(O[C@@H]3C[C@H]4C(=O)N[C@]5(C(=O)NS(=O)(=O)C6CC6)C[C@H]5/C=C\CCCCC[C@H](NC(=O)c5ccn(CC(F)F)n5)C(=O)N4C3)cc(OC(C)C)nc2c1C [Compound 1011]', 9.46),
  ('COc1ccc2c(O[C@@H]3C[C@H]4C(=O)N[C@]5(C(=O)NS(=O)(=O)C6(C)CC6)C[C@H]5/C=C\CCCCC[C@H](NC(=O)c5cnn(C)n5)C(=O)N4C3)cc(OC(C)C)nc2c1C [Compound 1006]', 9.74),
  ('COc1c(F)ccc2c(O[C@@H]3C[C@H]4C(=O)N[C@]5(C(=O)NS(=O)(=O)C6(C)CC6)C[C@H]5/C=C\CCCCC[C@H](NC(=O)c5ccn(CC(F)(F)F)n5)C(=O)N4C3)cc(OC(C)C)nc12 [Compound 1026]', 9.51),
  ('COc1ccc2c(O[C@@H]3C[C@H]4C(=O)N[C@]5(C(=O)NS(=O)(=O)C6(C)CC6)C[C@H]5/C=C\CCCCC[C@H](NC(=O)c5ccn(CC(=O)N(C)C)n5)C(=O)N4C3)cc(OC(C)C)nc2c1C [Compound 1017]', 8.96),
  ('COCc1ccc(C(=O)N[C@H]2CCCCC/C=C\[C@@H]3C[C@@]3(C(=O)NS(=O)(=O)C3CC3)NC(=O)[C@@H]3C[C@@H](Oc4cc(OC(C)C)nc5c(C)c(OC)ccc45)CN3C2=O)s1 [Compound 1009]', 9.34);

The reported value for COc1c(F)ccc2c(O[C@@H]3C[C@H]4C(=O)N[C@]5(C(=O)NS(=O)(=O)C6CC6)C[C@H]5/C=C\CCCCC[C@H](NC(=O)c5ccn(C)n5)C(=O)N4C3)cc(OC(C)C)nc12 [Compound 1016] in terms of pEC50 is 8.96

Record COc1ccc2c(O[C@@H]3C[C@H]4C(=O)N[C@]5(C(=O)NS(=O)(=O)C6CC6)C[C@H]5/C=C\CCCCC[C@H](NC(=O)c5ccn(CC(F)(F)F)n5)C(=O)N4C3)cc(OC(C)C)nc2c1C [Compound 1012] , field pEC50: 9.62

Briefly, pEC50 measured for COc1c(F)ccc2c(O[C@@H]3C[C@H]4C(=O)N[C@]5(C(=O)NS(=O)(=O)C6(C)CC6)C[C@H]5/C=C\CCCCC[C@H](NC(=O)c5ccn(CC(F)F)n5)C(=O)N4C3)cc(OC(C)C)nc12 [Compound 1022] : 9.39

The measured pEC50 associated with Cc1c(F)ccc2c(O[C@@H]3C[C@H]4C(=O)N[C@]5(C(=O)NS(=O)(=O)C6(C)CC6)C[C@H]5/C=C\CCCCC[C@H](NC(=O)c5ccn(C)n5)C(=O)N4C3)cc(OC(C)C)nc12 [Compound 1008] reads 9.46

----------
System: HCV genotype 1a subgenomic replicon with NS3 resistance mutation R155K
ASSAY: HCV replicon RNA replication assay, R155K 1a
Type: cell-based, HCV genotype 1a (strain H77), Huh-7 cells
SETTINGS: Hepatitis C virus, Huh-7, 72 h, read-out: R155K 1a Ec50 (nM)
MEASURED ENDPOINT: EC50 (nM)
# value in nM; strip the unit string

The following molecules have reported results that may help.
INSERT INTO assay_data (compound_structure_string, endpoint_result) VALUES
  ('COc1ccc2c(O[C@@H]3C[C@H]4C(=O)N[C@]5(C(=O)NS(=O)(=O)C6(C)CC6)C[C@H]5/C=C\CCCCC[C@H](NC(=O)c5ccc(C(C)(C)O)s5)C(=O)N4C3)cc(OC(C)C)nc2c1C', 2.4),
  ('COc1c(F)ccc2c(O[C@@H]3C[C@H]4C(=O)N[C@]5(C(=O)NS(=O)(=O)C6(C)CC6)C[C@H]5/C=C\CCCCC[C@H](NC(=O)c5ccn(C(F)F)n5)C(=O)N4C3)cc(OC(C)C)nc12', 4.7),
  ('COc1ccc2c(O[C@@H]3C[C@H]4C(=O)N[C@]5(C(=O)NS(=O)(=O)C6(C)CC6)C[C@H]5/C=C\CCCCC[C@H](NC(=O)c5cnn(CC(F)F)n5)C(=O)N4C3)cc(OC(C)C)nc2c1C', 4.6);

get_value(item= "CC(C)Oc1cc(O[C@@H]2C[C@H]3C(=O)N[C@]4(C(=O)NS(=O)(=O)C5(C)CC5)C[C@H]4/C=C\CCCCC[C@H](NC(=O)c4ccn(C)n4)C(=O)N3C2)c2ccc(Cl)c(Cl)c2n1" , readout=EC50) returns 9.3

response.value for "COc1c(F)ccc2c(O[C@@H]3C[C@H]4C(=O)N[C@]5(C(=O)NS(=O)(=O)C6(C)CC6)C[C@H]5/C=C\CCCCC[C@H](NC(=O)c5ccn(CC(F)F)n5)C(=O)N4C3)cc(OC(C)C)nc12" (field: EC50) = 1.3

----------
Tested on: HCV genotype 1a subgenomic replicon with NS3 resistance mutation R155K
ASSAY: HCV replicon RNA replication assay, R155K 1a
Assay type: cell-based, HCV genotype 1a (strain H77), Huh-7 cells
SETTINGS: Hepatitis C virus, Huh-7, 72 h, read-out: R155K 1a Ec50 (nM)
MEASURED ENDPOINT: EC50

Reference set (8 entries):
INSERT INTO assay_data (compound_structure_string, endpoint_result) VALUES
  ('Cc1c(F)ccc2c(O[C@@H]3C[C@H]4C(=O)N[C@]5(C(=O)NS(=O)(=O)C6(C)CC6)C[C@H]5/C=C\CCCCC[C@H](NC(=O)c5ccn(C)n5)C(=O)N4C3)cc(OC(C)C)nc12', '1.9 nM'),
  ('COc1c(F)ccc2c(O[C@@H]3C[C@H]4C(=O)N[C@]5(C(=O)NS(=O)(=O)C6(C)CC6)C[C@H]5/C=C\CCCCC[C@H](NC(=O)c5ccn(CC(F)(F)F)n5)C(=O)N4C3)cc(OC(C)C)nc12', '1.6 nM'),
  ('COc1c(F)ccc2c(O[C@@H]3C[C@H]4C(=O)N[C@]5(C(=O)NS(=O)(=O)C6CC6)C[C@H]5/C=C\CCCCC[C@H](NC(=O)c5ccn(C)n5)C(=O)N4C3)cc(OC(C)C)nc12', '7.9 nM'),
  ('COCCn1ccc(C(=O)N[C@H]2CCCCC/C=C\[C@@H]3C[C@@]3(C(=O)NS(=O)(=O)C3(C)CC3)NC(=O)[C@@H]3C[C@@H](Oc4cc(OC(C)C)nc5c(C)c(OC)ccc45)CN3C2=O)n1', '1.5 nM'),
  ('CNC(=O)Cn1ccc(C(=O)N[C@H]2CCCCC/C=C\[C@@H]3C[C@@]3(C(=O)NS(=O)(=O)C3CC3)NC(=O)[C@@H]3C[C@@H](Oc4cc(OC(C)C)nc5c(C)c(OC)ccc45)CN3C2=O)n1', '4.2 nM'),
  ('COc1ccc2c(O[C@@H]3C[C@H]4C(=O)N[C@]5(C(=O)NS(=O)(=O)C6(C)CC6)C[C@H]5/C=C\CCCCC[C@H](NC(=O)c5ccn(CC(F)F)n5)C(=O)N4C3)cc(OC(C)C)nc2c1C', '0.96 nM'),
  ('COc1c(F)ccc2c(O[C@@H]3C[C@H]4C(=O)N[C@]5(C(=O)NS(=O)(=O)C6(C)CC6)C[C@H]5/C=C\CCCCC[C@H](NC(=O)c5ccc(C)s5)C(=O)N4C3)cc(OC(C)C)nc12', '6.5 nM'),
  ('COc1c(F)ccc2c(O[C@@H]3C[C@H]4C(=O)N[C@]5(C(=O)NS(=O)(=O)C6(C)CC6)C[C@H]5/C=C\CCCCC[C@H](NC(=O)c5ccn(C)n5)C(=O)N4C3)cc(OC(C)C)nc12', '1.6 nM');

Continue with the compound presented below.
Assay HCV genotype 1a subgenomic replicon with NS3 resistance mutation R155K, sample "Cc1c(O)ccc2c(O[C@@H]3C[C@H]4C(=O)N[C@]5(C(=O)NS(=O)(=O)C6(C)CC6)C[C@H]5/C=C\CCCCC[C@H](NC(=O)c5ccn(C)n5)C(=O)N4C3)cc(OC(C)C)nc12" , EC50 read: 0.95 nM
